Where do these numbers come from? They come from patent US11208387B2.

Test system: Pseudomonas aeruginosa PA01
Test Protocol: Serum MIC, broth micro-dilution
Format: cell-based
Condition Info: Pseudomonas aeruginosa, PA01; 50% v/v mouse serum; compounds of Table 1; Table 7; read-out: P. aeruginosa 01 Serum MIC
Parameter MIC: see the listing below.
Your answer should be a plain number; it is taken to be in µM.

[
  {
    "Compound": "Cc1nc(-c2ccc(C(C)(C)C)cc2)ncc1C(=O)N[C@@H](CCN)C(=O)N(C)[C@@H]1C(=O)N[C@@H](C)C(=O)N[C@H](C(=O)O)Cc2ccc(OCCN)c(c2)-c2cc1ccc2OCCN (racemic)",
    "MIC [µM]": 64
  },
  {
    "Compound": "Cc1nc(-c2ccc(C(C)(C)C)cc2)nc(C)c1C(=O)N[C@@H](CCN)C(=O)N(C)[C@@H]1C(=O)N[C@@H](C)C(=O)N[C@H](C(=O)NCC#N)Cc2ccc(O)c(c2)-c2cc1cc(OCCN)c2OCCN",
    "MIC [µM]": 4
  }
]

Would you kindly look at the next entry?
Lab note: measured MIC of CCCCCOc1ccc(-c2nc(C)c(C(=O)N[C@@H](CCN)C(=O)N(C)[C@@H]3C(=O)N[C@@H](C)C(=O)N[C@H](C(=O)O)Cc4ccc(OCCN)c(c4)-c4cc3ccc4O)c(C)n2)cc1 (racemic) was 53

---

Test system: Klebsiella pneumoniae ATCC 700603
Test Protocol: Serum MIC, broth micro-dilution
Assay type: cell-based
Condition Info: Klebsiella pneumoniae, ATCC700603; 50% v/v mouse serum in Mueller Hinton II cation adjusted Broth, 35° C., 22 hours; Table 4; read-out: K pneumoniae 700603 Serum MIC
Parameter MIC: see the listing below.
Your answer should be a plain number; it is taken to be in µM.

Example compounds with recorded MIC:
[
  {
    "Compound Structure String": "Cc1nc(-c2ccc(C(C)(C)C)cc2O)cc(CN)c1C(=O)N[C@@H](CNS(N)(=O)=O)C(=O)N(C)[C@@H]1C(=O)N[C@@H](C)C(=O)N[C@H](C(=O)O)Cc2ccc(OC[C@H](O)CN)c(c2)-c2cc1cc(OC[C@H](O)CN)c2O",
    "MIC [µM]": 1
  },
  {
    "Compound Structure String": "C[C@@H]1NC(=O)[C@@H](N(C)C(=O)[C@H](CNS(N)(=O)=O)NC(=O)c2c(N)nc(-c3ccc(C(C)(C)C)cc3)nc2C(F)F)c2cc(OC[C@H](O)CN)c(O)c(c2)-c2cc(ccc2OC[C@H](O)CN)C[C@@H](C(=O)O)NC1=O",
    "MIC [µM]": 0.38
  },
  {
    "Compound Structure String": "Cc1nc(-c2ccc(C(C)(C)C)cc2)nc(C)c1C(=O)N[C@@H](CNS(N)(=O)=O)C(=O)N(C)[C@@H]1C(=O)N[C@@H](C)C(=O)N[C@H](C(=O)O)Cc2ccc(OC[C@H](O)CN)c(c2)-c2cc1cc(OC[C@H](O)CN)c2O",
    "MIC [µM]": 0.46
  }
]

Lab note: measured MIC of Cc1cc(-c2ccc(C(C)(C)C)cc2F)nc(N)c1C(=O)N[C@@H](CNS(N)(=O)=O)C(=O)N(C)[C@@H]1C(=O)N[C@@H](C)C(=O)N[C@H](C(=O)O)Cc2ccc(OC[C@H](O)CN)c(c2)-c2cc1cc(OC[C@H](O)CN)c2O was 0.5

---

Tested on: Pseudomonas aeruginosa PA01
Test Protocol: Serum MIC, broth micro-dilution
Type: cell-based
Condition Info: Pseudomonas aeruginosa, PA01; 50% v/v mouse serum in Mueller Hinton II cation adjusted Broth, 35° C., 22 hours; Table 4; read-out: P. aeruginosa 01 Serum MIC
Procedure: In vitro antimicrobial activity of each compound was determined by measuring minimal inhibitor concentrations (MICs) using the broth micro-dilution technique as approved by the Clinical and Laboratory Standards Institute (CLSI) (Methods for Dilution Antimicrobial Susceptibility Tests for Bacteria that Grow Aerobically; Approved Standard—Eighth Edition. CLSI document M07-A8. Wayne, Pa.: Clinical and Laboratory Standards; 2009). […]
Parameter MIC: see the listing below.
Your answer should be a plain number; it is taken to be in µM.

[
  {
    "Compound Structure String": "C[C@@H]1NC(=O)[C@@H](N(C)C(=O)[C@H](CCN)NC(=O)c2c(N)cc(-c3ccc(C(C)(C)C)cc3)nc2Cl)c2cc(OC[C@H](O)CN)c(O)c(c2)-c2cc(ccc2OC[C@H](O)CN)C[C@@H](C(=O)O)NC1=O",
    "MIC, µM": 8
  },
  {
    "Compound Structure String": "Cc1nc(-c2ccc(C(C)(C)C)cc2)nc(N)c1C(=O)N[C@@H](CCN)C(=O)N(C)[C@@H]1C(=O)N[C@@H](C)C(=O)N[C@H](C(=O)O)Cc2ccc(OC[C@H](O)CN)c(c2)-c2cc1cc(OC[C@H](O)CN)c2O",
    "MIC, µM": 16
  }
]

Would you kindly look at the next entry?
Per the reported Pseudomonas aeruginosa PA01 data, Cc1nc(-c2ccc(C(C)(C)C)cc2CO)nc(N)c1C(=O)N[C@@H](CNS(N)(=O)=O)C(=O)N(C)[C@@H]1C(=O)N[C@@H](C)C(=O)N[C@H](C(=O)O)Cc2ccc(OC[C@H](O)CN)c(c2)-c2cc1cc(OC[C@H](O)CN)c2O has MIC of 16

---

Test system: Klebsiella pneumoniae ATCC 700603
Test Protocol: Serum MIC, broth micro-dilution
Assay type: cell-based
Condition Info: Klebsiella pneumoniae, ATCC700603; 50% v/v mouse serum in Mueller Hinton II cation adjusted Broth, 35° C., 22 hours; Table 4; read-out: K pneumoniae 700603 Serum MIC
Readout Label: MIC (µM)
Your answer should be a plain number; it is taken to be in µM.

Lab note: measured MIC of C[C@@H]1NC(=O)[C@@H](N(C)C(=O)[C@H](CCN)NC(=O)c2c(N)nc(-c3ccc(C(C)(C)C)cc3)nc2Cl)c2cc(OC[C@H](O)CN)c(O)c(c2)-c2cc(ccc2OC[C@H](O)CN)C[C@@H](C(=O)O)NC1=O [Example 55] was 0.19

Lab note: measured MIC of Cc1nc(-c2ccc3c(c2O)CCC3(C)C)nc(N)c1C(=O)N[C@@H](CNS(N)(=O)=O)C(=O)N(C)[C@@H]1C(=O)N[C@@H](C)C(=O)N[C@H](C(=O)O)Cc2ccc(OC[C@H](O)CN)c(c2)-c2cc1cc(OC[C@H](O)CN)c2O [Example 70] was 1

Lab note: measured MIC of Cc1cc(-c2ccc(C(C)(C)C)cc2)nc(N)c1C(=O)N[C@@H](CNS(N)(=O)=O)C(=O)N(C)[C@@H]1C(=O)N[C@@H](C)C(=O)N[C@H](C(=O)O)Cc2ccc(OC[C@H](O)CN)c(c2)-c2cc1cc(OC[C@H](O)CN)c2O [Example 49] was 1

Lab note: measured MIC of Cc1nc(-c2ccc(C(C)(C)C)cc2)nc(N)c1C(=O)N[C@@H](CCN)C(=O)N(C)[C@@H]1C(=O)N[C@@H](C)C(=O)N[C@H](C(=O)O)Cc2ccc(OC[C@H](O)CN)c(c2)-c2cc1cc(OC[C@H](O)CN)c2O [Example 24] was 0.25

Lab note: measured MIC of Cc1nc(-c2ccc(OCCC(C)(C)C)cc2)nc(N)c1C(=O)N[C@@H](CNS(N)(=O)=O)C(=O)N(C)[C@@H]1C(=O)N[C@@H](C)C(=O)N[C@H](C(=O)O)Cc2ccc(OC[C@H](O)CN)c(c2)-c2cc1cc(OC[C@H](O)CN)c2O [Example 3] was 0.5

Lab note: measured MIC of Cc1nc(-c2ccc(C3CCC3)cc2)nc(N)c1C(=O)N[C@@H](CNS(N)(=O)=O)C(=O)N(C)[C@@H]1C(=O)N[C@@H](C)C(=O)N[C@H](C(=O)O)Cc2ccc(OC[C@H](O)CN)c(c2)-c2cc1cc(OC[C@H](O)CN)c2O [Example 41] was 1

Lab note: measured MIC of Cc1nc(N2CCC(C(C)(C)C)CC2)nc(N)c1C(=O)N[C@@H](CNS(N)(=O)=O)C(=O)N(C)[C@@H]1C(=O)N[C@@H](C)C(=O)N[C@H](C(=O)O)Cc2ccc(OC[C@H](O)CN)c(c2)-c2cc1cc(OC[C@H](O)CN)c2O [Example 12] was 3

Lab note: measured MIC of Cc1nc(-c2ccc(C(C)(C)C)cc2CO)nc(N)c1C(=O)N[C@@H](CNS(N)(=O)=O)C(=O)N(C)[C@@H]1C(=O)N[C@@H](C)C(=O)N[C@H](C(=O)O)Cc2ccc(OC[C@H](O)CN)c(c2)-c2cc1cc(OC[C@H](O)CN)c2O [Example 58] was 4

Lab note: measured MIC of Cc1nc(-c2ccc3c(c2)CCC3(C)C)nc(N)c1C(=O)N[C@@H](CCN)C(=O)N(C)[C@@H]1C(=O)N[C@@H](C)C(=O)N[C@H](C(=O)O)Cc2ccc(OC[C@H](O)CN)c(c2)-c2cc1cc(OC[C@H](O)CN)c2O [Example 47] was 0.25
